Target: HGK/MAP4K4 (Homo sapiens, UniProt O95819)
Sequence (O95819 whole entry): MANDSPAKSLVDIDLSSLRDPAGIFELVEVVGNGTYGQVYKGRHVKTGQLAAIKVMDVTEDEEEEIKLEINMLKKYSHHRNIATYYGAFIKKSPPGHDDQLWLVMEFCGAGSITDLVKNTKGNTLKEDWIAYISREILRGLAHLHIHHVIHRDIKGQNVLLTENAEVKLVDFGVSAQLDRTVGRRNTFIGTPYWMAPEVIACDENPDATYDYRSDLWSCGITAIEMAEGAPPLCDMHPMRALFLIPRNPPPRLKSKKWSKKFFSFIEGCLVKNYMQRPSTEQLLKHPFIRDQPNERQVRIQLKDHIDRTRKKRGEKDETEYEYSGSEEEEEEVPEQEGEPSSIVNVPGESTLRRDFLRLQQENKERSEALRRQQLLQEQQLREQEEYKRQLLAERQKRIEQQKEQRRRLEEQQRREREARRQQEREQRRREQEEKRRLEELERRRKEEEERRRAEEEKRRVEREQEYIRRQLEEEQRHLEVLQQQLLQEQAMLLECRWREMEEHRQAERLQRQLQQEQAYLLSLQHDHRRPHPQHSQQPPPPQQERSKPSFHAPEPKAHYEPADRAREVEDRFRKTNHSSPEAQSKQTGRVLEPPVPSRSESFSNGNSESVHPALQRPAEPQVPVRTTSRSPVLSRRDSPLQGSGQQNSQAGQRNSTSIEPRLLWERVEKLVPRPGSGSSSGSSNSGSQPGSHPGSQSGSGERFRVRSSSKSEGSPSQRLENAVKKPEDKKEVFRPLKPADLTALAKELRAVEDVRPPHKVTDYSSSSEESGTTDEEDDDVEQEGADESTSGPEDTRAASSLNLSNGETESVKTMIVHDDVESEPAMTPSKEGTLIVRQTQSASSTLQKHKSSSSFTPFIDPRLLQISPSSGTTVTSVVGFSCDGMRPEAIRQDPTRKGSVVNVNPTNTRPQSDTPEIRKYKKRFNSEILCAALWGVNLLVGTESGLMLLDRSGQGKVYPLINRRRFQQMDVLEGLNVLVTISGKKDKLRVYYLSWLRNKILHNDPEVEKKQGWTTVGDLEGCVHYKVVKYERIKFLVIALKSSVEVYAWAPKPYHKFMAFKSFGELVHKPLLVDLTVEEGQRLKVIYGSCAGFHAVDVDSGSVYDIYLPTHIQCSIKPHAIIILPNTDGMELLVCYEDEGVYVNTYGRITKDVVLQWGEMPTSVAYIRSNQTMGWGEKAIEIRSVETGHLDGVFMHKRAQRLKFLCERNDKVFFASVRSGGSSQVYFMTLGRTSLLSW
Assay: Radiolabeled ATP kinase assay (Reaction Biology Corp.), HGK
Type: biochemical
Set-up: purchased Reaction Biology Corp
Conditions: [Cmpd] 0.1 μM; 10 μM ATP; read-out: % Enzyme Activity (relative to DMSO controls), HGK/MAP4K4, Data 1

compound | remaining activity at 0.1 µM / %
CN1C2CCC1CN(Cc1ccc(-c3cnc4[nH]cc(-c5ccc6[nH]ccc6c5)c4c3)cc1)C2 [Compound 12b] | 34.5
CN1C2CCC1CN(Cc1ccc(-c3cnc4[nH]cc(-c5cccc6[nH]ncc56)c4c3)cc1)C2 [Compound 12d] | -0.29
CN1CCN(Cc2ccc(-c3cnc4[nH]cc(-c5csc6ccccc56)c4c3)cc2)CC1 | 4.89
c1cc2cc(-c3c[nH]c4ncc(-c5ccc(CN6CC7CCC(C6)O7)cc5)cc34)ccc2[nH]1 [Compound 12a] | 51.5
CN1CC2CCC(C1)N2Cc1ccc(-c2cnc3[nH]cc(-c4ccc5[nH]ccc5c4)c3c2)cc1 [Compound 12c] | 84.2
CN1CCN(Cc2ccc(-c3cnc4[nH]cc(-c5ccc6cnn(C)c6c5)c4c3)cc2)CC1 | 7.91
CNC(=O)Nc1ccc(-c2c[nH]c3ncc(-c4ccc(CN5CCN(C)CC5)cc4)cc23)cc1 | 17.7

---

Target: panel of 60 human kinases (Homo sapiens)
Construct: purchased Reaction Biology Corp
Test: Radiolabeled ATP kinase assay, panel of 60 kinases (Table S5)
Format: biochemical
Details: FGFR1; 0.1 μM; 10 μM ATP; read-out: % Enzyme Activity (relative to DSMO controls)
Experimental: To better understand the biologically relevant targets of compound 1 and its analogs, a second round of cell-free kinase assays was performed. In this expanded assay, we selected ten analogs ranging from moderately to very strongly protective in the CPA assay. These analogs were evaluated for their ability to inhibit a selection of 60 kinases at 0.1 μM and 0.5 μM. […] RNAseq data were used to confirm the expression of each kinase in ES MNs (see Example 12). […]

compound | remaining activity at 0.1 µM (%)
CN1CCN(Cc2ccc(-c3cnc4[nH]cc(-c5cnn(Cc6ccccc6)c5)c4c3)cc2)CC1 | 91.4
CN1CCN(Cc2ccc(-c3cnc4[nH]cc(-c5cccc(Cl)c5)c4c3)cc2)CC1 | 98.2
CN1CCN(Cc2ccc(-c3cnc4[nH]cc(-c5ccccc5Cl)c4c3)cc2)CC1 | 77.9
Cc1nn(C)c(C)c1-c1c[nH]c2ncc(-c3ccc(CN4CCN(C)CC4)cc3)cc12 | 97.5
COc1ccccc1-c1c[nH]c2ncc(-c3ccc(CN4CCN(C)CC4)cc3)cc12 | 96.4
CN1CCN(Cc2ccc(-c3cnc4[nH]cc(-c5ccc6[nH]ccc6c5)c4c3)cc2)CC1 [Compound 1, reference compound] | 82.7
CN1CCN(Cc2ccc(-c3cnc4[nH]cc(-c5ccoc5)c4c3)cc2)CC1 | 93.1
CN1CCN(Cc2ccc(-c3cnc4[nH]cc(-c5ccncc5)c4c3)cc2)CC1 | 100
CN1CCN(Cc2ccc(-c3cnc4[nH]cc(-c5ccc6c(c5)OCCO6)c4c3)cc2)CC1 | 93.2

---

Target: panel of 60 human kinases (Homo sapiens, UniProt P24941)
Construct: purchased Reaction Biology Corp
Experiment: Radiolabeled ATP kinase assay, panel of 60 kinases (Table S5)
Type: biochemical
Settings: CDK2/cyclin A1; 0.1 μM; 10 μM ATP; read-out: % Enzyme Activity (relative to DSMO controls)
Please respond with MET when measured remaining activity at 0.1 µM is strictly beneath 60%, and with NOT MET in all other cases.

compound | label.value
CN1CCN(Cc2ccc(-c3cnc4[nH]cc(-c5ccc6[nH]ccc6c5)c4c3)cc2)CC1 [Compound 1, reference compound] | NOT MET
CN1CCN(Cc2ccc(-c3cnc4[nH]cc(-c5cnn(Cc6ccccc6)c5)c4c3)cc2)CC1 | MET
CN1CCN(Cc2ccc(-c3cnc4[nH]cc(-c5ccccc5Cl)c4c3)cc2)CC1 | NOT MET
CN1CCN(Cc2ccc(-c3cnc4[nH]cc(-c5ccoc5)c4c3)cc2)CC1 | NOT MET

This collection of values is drawn from patent US12227500B2.
